Data credit: paper PMC9740255

target: purified, full length dDAT (Drosophila melanogaster); construct: Full length dDAT with a C-terminal thrombin cleavage site followed by a His8-tag; made in house; host or cells: Expi293F suspension cells transduced with BacMam baculovirus (virus produced in Sf9); assay: Competitive inhibition of [3H]nisoxetine binding to purified dDAT by scintillation proximity assay (SPA); settings: read-out: dDAT Ki
Sequence (Q7K4Y6 whole entry): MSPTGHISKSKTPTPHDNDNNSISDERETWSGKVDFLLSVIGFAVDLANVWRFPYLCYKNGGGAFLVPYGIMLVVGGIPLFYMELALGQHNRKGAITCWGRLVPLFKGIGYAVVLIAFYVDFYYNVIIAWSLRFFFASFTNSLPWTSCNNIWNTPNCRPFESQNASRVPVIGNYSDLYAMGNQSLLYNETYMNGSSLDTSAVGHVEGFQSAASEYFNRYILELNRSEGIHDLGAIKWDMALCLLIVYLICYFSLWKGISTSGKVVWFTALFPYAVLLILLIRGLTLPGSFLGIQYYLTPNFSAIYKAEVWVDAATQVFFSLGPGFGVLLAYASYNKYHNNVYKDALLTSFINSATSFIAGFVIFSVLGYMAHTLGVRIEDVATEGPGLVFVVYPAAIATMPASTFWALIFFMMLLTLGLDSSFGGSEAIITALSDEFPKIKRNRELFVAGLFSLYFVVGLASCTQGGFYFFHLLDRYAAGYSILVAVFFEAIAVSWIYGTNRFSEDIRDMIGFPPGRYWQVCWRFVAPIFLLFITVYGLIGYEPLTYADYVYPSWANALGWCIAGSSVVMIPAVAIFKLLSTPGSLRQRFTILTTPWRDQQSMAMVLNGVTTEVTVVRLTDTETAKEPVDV
Ki strictly under 20 µM means met; at 20 µM or over means not met.

Qu. Is Ki of CCCCN1[C@@H]2CC[C@H]1CC(OC(c1ccc(F)cc1)c1ccc(F)cc1)C2 (stereo partly shown) strictly below 20 µM?
Ans. met

Qu. Is Ki of [O-][S+](CCN1CCN(CC(O)Cc2ccccc2)CC1)C(c1ccc(F)cc1)c1ccc(F)cc1 (stereo not shown) strictly below 20 µM?
Ans. not met

Qu. Is Ki of CN(C)CCC[C@@]1(c2ccc(F)cc2)OCc2cc(C#N)ccc21 strictly below 20 µM?
Ans. not met

Qu. Is Ki of OC1(c2ccc(Cl)cc2)c2ccccc2C2=NCCN21 (stereo not shown) strictly below 20 µM?
Ans. met

Qu. Is Ki of CN[C@@H](C)Cc1ccccc1 strictly below 20 µM?
Ans. met

Qu. Is Ki of NC(=O)C[S+]([O-])C(c1ccccc1)c1ccccc1 (stereo not shown) strictly below 20 µM?
Ans. not met

Qu. Is Ki of NCCc1c[nH]c2ccc(O)cc12 strictly below 20 µM?
Ans. not met

Qu. Is Ki of C[C@H](N)Cc1ccccc1 strictly below 20 µM?
Ans. met

Qu. Is Ki of Fc1ccc([C@@H]2CCNC[C@H]2COc2ccc3c(c2)OCO3)cc1 strictly below 20 µM?
Ans. met
